Quick list: logP per entry.
Measurement Kind: logP

Smiles Code: Clc1cccc(Cl)c1C=NN=c1ccn(CCc2c(Cl)cccc2Cl)cc1
Measurement Kind: logP
Reading: 4

Smiles Code: Clc1cccc(Cl)c1C=NN=c1ccn(CCCc2ccccc2)cc1
Measurement Kind: logP
Reading: 3.9

Smiles Code: ON=C1CCN(CCCc2ccccc2)CC1
Measurement Kind: logP
Reading: 2.8

----------
Test: method code SF, from DOI: 10.1021/jm061062o.s001, PMID: 17326614
Settings: pH 7.4
Measurement Kind: logD

Smiles Code: CS(=O)(=O)CCN(CCS(C)(=O)=O)c1cc(C(N)=O)c([N+](=O)[O-])cc1[N+](=O)[O-]
Reading: -0.7

Smiles Code: CS(=O)(=O)CCN(CCCl)c1cc(C(N)=O)c([N+](=O)[O-])cc1[N+](=O)[O-]
Reading: 0.42

Smiles Code: CS(=O)(=O)CCN(CCI)c1cc(C(N)=O)c([N+](=O)[O-])cc1[N+](=O)[O-]
Reading: 0.74

Smiles Code: CS(=O)(=O)c1cc([N+](=O)[O-])c(C(N)=O)cc1N(CCBr)CCBr
Reading: 1.18
